assay name: Pharmacokinetics and oral bioavailability of D8.3.p1 and D10.1 in Balb/C female mice (PO, SQ, IV)
Format: in vivo
test context: female, Balb/C, mouse, plasma, po, 12.2 mg/kg, D10.1 PO 12.2 mg/kg, mean n=3; read-out: Time of max concentration Tmax (converted)

smiles notation | Tmax, min
CC[C@H](C)[C@@H]1NC(=O)[C@@H](CC(C)C)NC(=O)[C@H](CC(C)C)N(C)C(=O)[C@H](Cc2ccccc2)NC(=O)CN(C)C(=O)[C@@H]2CCCN2C(=O)[C@H](C(C)C)NC(=O)[C@H](Cc2ccccc2)N(C)C(=O)[C@H]2CCCN2C(=O)[C@H](CC(C)C)NC1=O | 30

---

test context: PAMPA
Where a SMILES comes first, the peptide text is derived from it. [ ]: non-standard residue; d: D form. NMeL = CN[C@@H](CC(C)C)C(=O)O; dNMeL = CN[C@H](CC(C)C)C(=O)O; Nle = CCCC[C@H](N)C(=O)O; dNMeA = CN[C@H](C)C(=O)O

compound | PAMPA_R3
CCCC[C@@H]1NC(=O)[C@@H](C)N(C)C(=O)[C@@H]2CCCN2C(=O)[C@@H](CC(C)C)NC(=O)[C@H](CC(C)C)N(C)C(=O)[C@H]2CCCN2C(=O)[C@H](CC(C)C)NC(=O)[C@@H](CC(C)C)NC(=O)[C@@H](C)NC1=O [Design D9.28] (cyclo(L[dP][NMeL][dL]P[dNMeA][Nle][dA][dL])) | 1.41E-06
CCCC[C@@H]1NC(=O)[C@@H]2CCCN2C(=O)[C@@H](C(C)C)NC(=O)[C@@H](C)N(C)C(=O)[C@@H](CC(C)C)NC(=O)[C@@H](CC(C)C)NC(=O)[C@@H]2CCCN2C(=O)[C@H]2CCCN2C1=O [Design D8.29, MET DPRO PRO DLEU DLEU *DALA DVAL PRO] (cyclo([dL][dL][dNMeA][dV]P[Nle][dP]P)) | 3.61E-07
CC[C@@H](C)[C@H]1NC(=O)[C@H]2CCCN2C(=O)[C@@H](C)NC(=O)[C@@H](CC(C)C)N(C)C(=O)[C@H]([C@@H](C)CC)NC(=O)[C@@H](C(C)C)NC(=O)[C@@H](CC(C)C)N(C)C(=O)[C@@H]2CCCN2C(=O)[C@@H]2CCCN2C1=O [Design D9.26] (cyclo(I[dNMeL][dA][dP][dI]PP[dNMeL][dV])) | 2.23E-06

---

assay name: Caco-2 permeability assay (apical to basolateral)
Assay type: in vitro ADME, human
test context: Caco-2, Caco_Papp_Average
Where a SMILES comes first, the peptide text is derived from it. [ ]: non-standard residue; d: D form. dNMeL = CN[C@H](CC(C)C)C(=O)O; dNMeA = CN[C@H](C)C(=O)O; Aib = CC(C)(N)C(=O)O
In this section we review reported Papp A→B values for a set of molecules.
endpoint: Papp A→B (×10⁻⁶ cm/s)

molecule | endpoint | number
CC(C)C[C@@H]1NC(=O)[C@H]2CCCN2C(=O)[C@@H]2CCCN2C(=O)[C@H](CC(C)C)NC(=O)[C@@H](CC(C)C)NC(=O)[C@@H](C)N(C)C(=O)[C@@H](C)N(C)C(=O)[C@@H](C(C)C)NC1=O [Design D8.6, LEU PRO DPRO LEU DVAL *DALA *DALA DLEU] (cyclo(LP[dP]L[dV][dNMeA][dNMeA][dL])) | Papp A→B | 0.737
CC[C@H](C)[C@@H]1NC(=O)[C@@H](CC(C)C)NC(=O)[C@@H](C)N(C)C(=O)[C@H](Cc2ccccc2)NC(=O)[C@@H](CC(C)C)NC(=O)[C@@H](C)N(C)C(=O)[C@@H]2CCCN2C(=O)[C@H](C(C)C)NC(=O)[C@H]2CCCN2C(=O)[C@@H]2CCCN2C1=O [Design D10.31] (cyclo(F[dNMeA][dL]IP[dP]VP[dNMeA][dL])) | Papp A→B | 2.79
CC[C@@H](C)[C@H]1NC(=O)[C@@H](CC(C)C)NC(=O)C(C)(C)NC(=O)[C@@H]2CCCN2C(=O)[C@@H]([C@H](C)CC)NC(=O)[C@@H](CC(C)C)NC(=O)C(C)(C)NC(=O)[C@@H]2CCCN2C1=O [Design D8.2, PRO AIB DLEU DILE PRO AIB DLEU DILE] (cyclo([Aib][dL][dI]P[Aib][dL][dI]P)) | Papp A→B | 11.7
CC[C@@H](C)[C@H]1NC(=O)[C@@H](CC(C)C)NC(=O)[C@@H](CC(C)C)N(C)C(=O)[C@@H]2CCCN2C(=O)[C@@H](C(C)C)NC(=O)[C@H](CC(C)C)NC(=O)[C@@H](CC(C)C)N(C)C(=O)[C@@H]2CCCN2C1=O [Design D8.3.p1, DLEU DVAL PRO *DLEU DLEU DILE PRO *DLEU] (cyclo(L[dV]P[dNMeL][dL][dI]P[dNMeL])) | Papp A→B | 11.8
CC[C@@H](C)[C@H]1NC(=O)[C@H](Cc2ccccc2)NC(=O)[C@@H](CC(C)C)N(C)C(=O)[C@@H]2CCCN2C(=O)[C@@H](C(C)C)NC(=O)[C@@H](C)N(C)C(=O)[C@H]2CCCN2C(=O)[C@@H](CC(C)C)NC(=O)[C@H](CC(C)C)NC(=O)[C@@H]2CCCN2C1=O [Design D10.30] (cyclo(F[dI]PL[dL][dP][dNMeA][dV]P[dNMeL])) | Papp A→B | 16.1
CC(C)C[C@@H]1C(=O)N(C)[C@@H](CC(C)C)C(=O)N2CCC[C@@H]2C(=O)N[C@H](CC(C)C)C(=O)N[C@H](C)C(=O)N2CCC[C@@H]2C(=O)N2CCC[C@H]2C(=O)N[C@@H](C)C(=O)N[C@H](Cc2ccccc2)C(=O)N[C@H](CC(C)C)C(=O)N[C@@H](C(C)C)C(=O)N1C (single isomer, unassigned) [Design D11.9.p2] | Papp A→B | 4.03
